Test system: SK-OV-3 ovarian
Experiment: NCI-60 one-dose screen, 48 h
Conditions: 10 µM unless noted
About 83,000 compounds went through this panel and 20% of them were active in at least one assay; those are over-represented in the sample as a whole. Active and inactive are the calls of the source. Rule for the calls: active = growth percent below 10; inactive = the rest.
Field 'call' accepts true (1) for active, false (0) for inactive

**Q:** Please state the recorded outcome for this compound: `N#CC(C#N)=Cc1c(-c2ccccc2)[nH]c2ccccc12`
**A:** false (0)

**Q:** Okay, and `Nc1ccccc1-c1ccc(-c2ccc(Cl)cc2)c2c1[nH]c1ccccc12` ?
**A:** false (0)

**Q:** Now the compound `O=C(Nc1ccc(N2CCNCC2)cc1)c1[nH]ncc1Nc1cc(Oc2ccccc2)ncn1`
**A:** false (0)

**Q:** How about this compound: `O=C(Nc1ccc(-c2nc3cc4ccccc4cc3[nH]2)cc1)c1cccc(Br)c1`
**A:** false (0)

**Q:** Try the compound `CCC(C)(C)C(=O)O[C@H]1C[C@@H](C)C=C2C=C[C@H](C)[C@H](CC[C@@H]3CC=CC(=O)O3)[C@H]21`
**A:** false (0)

**Q:** Same question, `O=C(Nc1ccc(Cl)cc1F)c1cc(Br)ccc1O` this time
**A:** true (1)

**Q:** Try this compound too: N#Cc1c(N)nc2c(c1N)C(c1ccc(F)cc1)c1ccc(N)cc1O2 (centres undefined)
**A:** false (0)

**Q:** // same read-out, input: COc1ccc(CCN2C(=O)/C(=C/c3ccc(C4Oc5ccccc5C5CC(c6cccc(OC)c6)=NN54)cc3)SC2=S)cc1 (centres undefined)
**A:** false (0)

**Q:** How about `COc1ccc(-c2nnc(COc3ccc(C(=O)/C=C/c4ccco4)cc3)o2)cc1` ?
**A:** false (0)
